System: P. aeruginosa (ATCC 27853)
Type: cell-based
Conditions: ATCC 27853
Positions of bridges follow the written chain, without caps; N, C: chain ends. Non-standard residues stand in square brackets, D forms with d. Residues, ends and D or L forms follow the SMILES beside them. *: point of attachment. Phenylthio(4-OPh) = c1ccc(Oc2ccc(S*)cc2)cc1; S(3-Methylbutyl) = CC(C)CCS*; Dab = NCC[C@H](N)C(=O)O; X1 = CC(C)CCCCS*
ENDPOINT: MIC P. aeruginosa (ATCC 27853) (µg/mL)

COMPOUND	SIGN	VALUE OBSERVED
CC(C)C[C@@H]1NC(=O)[C@@H](Cc2ccccc2)NC(=O)[C@H](CCN)NC(=O)[C@@H](NC(=O)[C@H](CCN)NC(=O)[C@@H](NC(=O)[C@H](N)CSSc2ccc(Oc3ccccc3)cc2)[C@@H](C)O)CCNC(=O)[C@H]([C@@H](C)O)NC(=O)[C@H](CCN)NC(=O)[C@H](CCN)NC1=O [Compound 30b] (H-[dC](Phenylthio(4-OPh))T[Dab][Dab][Dab][dF]L[Dab][Dab]T; lactam 4-C)	=	4
CC(C)C[C@@H]1NC(=O)[C@@H](Cc2ccccc2)NC(=O)[C@H](CCN)NC(=O)[C@@H](NC(=O)[C@H](CCN)NC(=O)[C@@H](N)[C@@H](C)O)CCNC(=O)[C@H]([C@@H](C)O)NC(=O)[C@H](CCN)NC(=O)[C@H](CCN)NC1=O [PMBN, polymyxin B nonapeptide, reference compound] (H-T[Dab][Dab][Dab][dF]L[Dab][Dab]T; lactam 3-C)	>	32
CC(C)CCSSC[C@H](NC(=O)CN)C(=O)N[C@H](C(=O)N[C@@H](CCN)C(=O)N[C@H]1CCNC(=O)[C@H]([C@@H](C)O)NC(=O)[C@H](CCN)NC(=O)[C@H](CCN)NC(=O)[C@H](CC(C)C)NC(=O)[C@@H](Cc2ccccc2)NC(=O)[C@H](CCN)NC1=O)[C@@H](C)O [Compound 22a] (H-GC(S(3-Methylbutyl))T[Dab][Dab][Dab][dF]L[Dab][Dab]T; lactam 5-C)	=	2
CC(C)C[C@@H]1NC(=O)[C@@H](Cc2ccccc2)NC(=O)[C@H](CCN)NC(=O)[C@@H](NC(=O)[C@H](CCN)NC(=O)[C@@H](NC(=O)[C@@H](CSSc2ccc(Oc3ccccc3)cc2)NC(=O)CN)[C@@H](C)O)CCNC(=O)[C@H]([C@@H](C)O)NC(=O)[C@H](CCN)NC(=O)[C@H](CCN)NC1=O [Compound 32b] (H-G[dC](Phenylthio(4-OPh))T[Dab][Dab][Dab][dF]L[Dab][Dab]T; lactam 5-C)	=	4
CC(C)CCCCSSC[C@H](NC(=O)CN)C(=O)N[C@H](C(=O)N[C@@H](CCN)C(=O)N[C@H]1CCNC(=O)[C@H]([C@@H](C)O)NC(=O)[C@H](CCN)NC(=O)[C@H](CCN)NC(=O)[C@H](CC(C)C)NC(=O)[C@@H](Cc2ccccc2)NC(=O)[C@H](CCN)NC1=O)[C@@H](C)O [Compound 24a] (H-GC(X1)T[Dab][Dab][Dab][dF]L[Dab][Dab]T; lactam 5-C)	=	2

* * *

Test system: A. baumannii (ATCC 19606)
Format: cell-based
Details: ATCC 19606
Starred links: 1 amine or outer side, 2 acyl side, 3 side chain; linkers in the order of their positions; H or OH if unused. Positions of bridges follow the written chain, without caps; N, C: chain ends. Non-standard residues stand in square brackets, D forms with d. Residues, ends and D or L forms follow the SMILES beside them. *: point of attachment. X2 = CC(C)CCCCC[C@@H](N[*:1])C(=O)[*:2]; X5 = c1ccc(-c2ccc(CS*)cc2)cc1; Dab = NCC[C@H](N)C(=O)O

COMPOUND	MIC A. baumannii (ATCC 19606)
CC(C)C[C@@H]1NC(=O)[C@@H](Cc2ccccc2)NC(=O)[C@H](CCN)NC(=O)[C@@H](NC(=O)[C@H](CCN)NC(=O)[C@@H](NC(=O)[C@H](N)CSSCc2ccc(-c3ccccc3)cc2)[C@@H](C)O)CCNC(=O)[C@H]([C@@H](C)O)NC(=O)[C@H](CCN)NC(=O)[C@H](CCN)NC1=O [Compound 36] (H-[dC](X5)T[Dab][Dab][Dab][dF]L[Dab][Dab]T; lactam 4-C)	1 µg/mL
CC(C)CCCCC[C@@H](N)C(=O)N[C@H](C(=O)N[C@@H](CCN)C(=O)N[C@H]1CCNC(=O)[C@H]([C@@H](C)O)NC(=O)[C@H](CCN)NC(=O)[C@H](CCN)NC(=O)[C@H](CC(C)C)NC(=O)[C@@H](Cc2ccccc2)NC(=O)[C@H](CCN)NC1=O)[C@@H](C)O [Compound 45] (H-[X2]T[Dab][Dab][Dab][dF]L[Dab][Dab]T; lactam 4-C)	0.25 µg/mL

* * *

System: differentiated conditionally immortalized PTECs (ciPTECs, OAT-1)
Assay: ciPTEC toxicity assay (PrestoBlue)
Format: cell-based, human
Starred links: 1 amine or outer side, 2 acyl side, 3 side chain; linkers in the order of their positions; H or OH if unused. Positions of bridges follow the written chain, without caps; N, C: chain ends. Non-standard residues stand in square brackets, D forms with d. Residues, ends and D or L forms follow the SMILES beside them. *: point of attachment. X2 = CC(C)CCCCC[C@@H](N[*:1])C(=O)[*:2]; S(2-cyclohexylethyl) = C1CCC(CCS*)CC1; S(3-Methylbutyl) = CC(C)CCS*; Dab = NCC[C@H](N)C(=O)O; X4 = CCCCCCS*
ENDPOINT: ciPTEC Toxicity Index (relative to polymyxin B)

COMPOUND	VALUE OBSERVED
CC(C)CCCCC[C@@H](N)C(=O)N[C@H](C(=O)N[C@@H](CCN)C(=O)N[C@H]1CCNC(=O)[C@H]([C@@H](C)O)NC(=O)[C@H](CCN)NC(=O)[C@H](CCN)NC(=O)[C@H](CC(C)C)NC(=O)[C@@H](Cc2ccccc2)NC(=O)[C@H](CCN)NC1=O)[C@@H](C)O [Compound 45] (H-[X2]T[Dab][Dab][Dab][dF]L[Dab][Dab]T; lactam 4-C)	2.0
CC(C)C[C@@H]1NC(=O)[C@@H](Cc2ccccc2)NC(=O)[C@H](CCN)NC(=O)[C@@H](NC(=O)[C@H](CCN)NC(=O)[C@@H](NC(=O)[C@H](CSSCCC2CCCCC2)NC(=O)CN)[C@@H](C)O)CCNC(=O)[C@H]([C@@H](C)O)NC(=O)[C@H](CCN)NC(=O)[C@H](CCN)NC1=O [Compound 23a] (H-GC(S(2-cyclohexylethyl))T[Dab][Dab][Dab][dF]L[Dab][Dab]T; lactam 5-C)	9.5
CCCCCCSSC[C@H](N)C(=O)N[C@H](C(=O)N[C@@H](CCN)C(=O)N[C@H]1CCNC(=O)[C@H]([C@@H](C)O)NC(=O)[C@H](CCN)NC(=O)[C@H](CCN)NC(=O)[C@H](CC(C)C)NC(=O)[C@@H](Cc2ccccc2)NC(=O)[C@H](CCN)NC1=O)[C@@H](C)O [Compound 17a] (H-C(X4)T[Dab][Dab][Dab][dF]L[Dab][Dab]T; lactam 4-C)	5.3
CC(C)CCSSC[C@H](N)C(=O)N[C@H](C(=O)N[C@@H](CCN)C(=O)N[C@H]1CCNC(=O)[C@H]([C@@H](C)O)NC(=O)[C@H](CCN)NC(=O)[C@H](CCN)NC(=O)[C@H](CC(C)C)NC(=O)[C@@H](Cc2ccccc2)NC(=O)[C@H](CCN)NC1=O)[C@@H](C)O [Compound 18a] (H-C(S(3-Methylbutyl))T[Dab][Dab][Dab][dF]L[Dab][Dab]T; lactam 4-C)	9.8

* * *

Tested on: A. baumannii (ATCC 19606)
Type: cell-based
Conditions: ATCC 19606
Positions of bridges follow the written chain, without caps; N, C: chain ends. Non-standard residues stand in square brackets, D forms with d. Residues, ends and D or L forms follow the SMILES beside them. *: point of attachment. S(2-cyclohexylethyl) = C1CCC(CCS*)CC1; S(3-Methylbutyl) = CC(C)CCS*; X6 = c1ccc(-c2ccc(S*)cc2)cc1; Dab = NCC[C@H](N)C(=O)O
Assign labels as follows, please: yes for MIC A. baumannii (ATCC 19606) below 2 µg/mL; no for MIC A. baumannii (ATCC 19606) equal to or exceeding 2 µg/mL.

COMPOUND	LABEL CLASS
CC(C)C[C@@H]1NC(=O)[C@@H](Cc2ccccc2)NC(=O)[C@H](CCN)NC(=O)[C@@H](NC(=O)[C@H](CCN)NC(=O)[C@@H](NC(=O)[C@@H](N)CSSCCC2CCCCC2)[C@@H](C)O)CCNC(=O)[C@H]([C@@H](C)O)NC(=O)[C@H](CCN)NC(=O)[C@H](CCN)NC1=O [Compound 19a] (H-C(S(2-cyclohexylethyl))T[Dab][Dab][Dab][dF]L[Dab][Dab]T; lactam 4-C)	no
CC(C)C[C@@H]1NC(=O)[C@@H](Cc2ccccc2)NC(=O)[C@H](CCN)NC(=O)[C@@H](NC(=O)[C@H](CCN)NC(=O)[C@@H](NC(=O)[C@H](N)CSSCCC2CCCCC2)[C@@H](C)O)CCNC(=O)[C@H]([C@@H](C)O)NC(=O)[C@H](CCN)NC(=O)[C@H](CCN)NC1=O [Compound 19b] (H-[dC](S(2-cyclohexylethyl))T[Dab][Dab][Dab][dF]L[Dab][Dab]T; lactam 4-C)	yes
CC(C)C[C@@H]1NC(=O)[C@@H](Cc2ccccc2)NC(=O)[C@H](CCN)NC(=O)[C@@H](NC(=O)[C@H](CCN)NC(=O)[C@@H](NC(=O)[C@@H](CSSc2ccc(-c3ccccc3)cc2)NC(=O)CN)[C@@H](C)O)CCNC(=O)[C@H]([C@@H](C)O)NC(=O)[C@H](CCN)NC(=O)[C@H](CCN)NC1=O [Compound 31b] (H-G[dC](X6)T[Dab][Dab][Dab][dF]L[Dab][Dab]T; lactam 5-C)	no
CC(C)CCSSC[C@H](NC(=O)CN)C(=O)N[C@H](C(=O)N[C@@H](CCN)C(=O)N[C@H]1CCNC(=O)[C@H]([C@@H](C)O)NC(=O)[C@H](CCN)NC(=O)[C@H](CCN)NC(=O)[C@H](CC(C)C)NC(=O)[C@@H](Cc2ccccc2)NC(=O)[C@H](CCN)NC1=O)[C@@H](C)O [Compound 22a] (H-GC(S(3-Methylbutyl))T[Dab][Dab][Dab][dF]L[Dab][Dab]T; lactam 5-C)	no
